assay: protein stability index of a GFP-peptide fusion (GPS, HEK-293T) (PSI 1-6); higher = more stable; conditions: treatment: MLN4924 1 uM, 8 h; c terminus: a fixed tail appended;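 also: 24-mer peptide tiles fused after GFP, lentivirally expressed, FACS-sorted into six equal bins by GFP/DsRed ratio, decoded by Illumina sequencing, PSI is the read-weighted mean bin number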
assay_metric: protein stability index

Query: Which value of protein stability index has been reported for RQLALPATEQAATQESTFQELCEG [NOP53] in the records?
Result: 5.22

Query: Try the sequence VVLGSGGVGKSALTVQFVQGIFVE [RAP1B]
Result: 2.96

Query: Try the sequence QTVTVEEAAGGESALAPSVFKQAK [MAP2]
Result: 5.38

Query: Try the sequence LKRKNKQAFLDELESSDLPVALLL [MNAT1]
Result: 2

Query: Try the sequence VSLDISPDLPFQIKPSENHYSLLT [PCDHGC5]
Result: 2.46

Query: Try the sequence SAWSNIQEAPLQDDSCLNNDIPHS [FAN1]
Result: 5.07

Query: Try the sequence ATKSHVDKVIMKLGKTNAKAVSEM [DYNC2LI1]
Result: 3.51

Query: Try the sequence EQDSGVQVEGLTVQYLGQAPELLG [ADAMTS4]
Result: 4.91

Query: Try the sequence MGFVPHNGSLYGQASSERLGLDNR [ADAMTSL2]
Result: 3.66

Query: Try the sequence HDVRLNGSAAGHVLVKDNGLGCKD [TENT5C]
Result: 4.92

Query: Try the sequence NHGLVSVGESVEEAFYYIHNLVVA [ADD1]
Result: 2.1

Query: Try the sequence IVSNFNYFYHRETENEEQTQLTQN [KCNA4]
Result: 3.38

Query: Try the sequence RKPPVFDENEDVNFDHFEILRAIG [STK32A]
Result: 2.86

Query: Try the sequence VANRHGHTCLMISCYKGHREIARY [FEM1A]
Result: 2.41

Query: Try the sequence GGGPSATEWACILRRKTPRHKQPT [C6orf223]
Result: 3.72

Query: Try the sequence LLETANQTLQAMDSEDFPQAAKQI [FSD1]
Result: 4.79

Query: Try the sequence HLLEAEPLSPIQASSVHLKSESSL
Result: 4.14

Query: Try the sequence ERSVFSERTEESSAVQYFQFYGYL [CARM1]
Result: 2.23

Query: Try the sequence DDIRKGIVLLEELLPKGSKEEQRD [FIS1]
Result: 4.6

###

assay: protein stability index of a GFP-peptide fusion (GPS, HEK-293T) (PSI 1-6); higher = more stable; conditions: treatment: DMSO; c terminus: a fixed tail appended
assay_metric: protein stability index
Give your answer as a number; write no unit.

Query: Which value of protein stability index has been reported for VNLYLGRSHFLWKEPATMSWLEEN [TCF25] in the records?
Result: 2.36

Query: Try the sequence GSAAPGSPLAADPACLGQPHTPGK [FOXJ1]
Result: 5.25

Query: Try the sequence FRRSLHDPDGLVATYISEVHEHDG [APMAP]
Result: 4.02

Query: Try the sequence PSNKAPLLVLCEDHRGRMVKHQCC [EHMT1]
Result: 3.13

Query: Try the sequence FGSFLLLLFSLTQFSVVSVVAYLA [RTN1]
Result: 3.14

Query: Try the sequence RKLSFSHSDHSSEMSLPEVQKDKY [SPATS1]
Result: 4.85

Query: Try the sequence QVHAWQLYYSKKLLDSWFTSTQEK [JAGN1]
Result: 2.23

Query: Try the sequence TGILLHPWLRQDPMPLAPTRSHLW [TRIB3]
Result: 2.11

Query: Try the sequence HDVRLNGSAAGHVLVKDNGLGCKD [TENT5C]
Result: 4.88

Query: Try the sequence DFRTKYETELSLRQLVEADINGLR [KRT36]
Result: 3.15

Query: Try the sequence HFDATRGWLLTSGTDKVIKLWDMT [WDFY2]
Result: 2.43

Query: Try the sequence THFASQEFFSANAISDQLLGAGSD [ADAMTSL2]
Result: 4.27

Query: Try the sequence DYRGPDCRYLNFTKGEEISVYVKL [MIA2]
Result: 2.45

Query: Try the sequence MREQYEAMAERNRRDAEEWFHAKS [KRT13]
Result: 4.81

Query: Try the sequence ALNFMKGCLKMNPDDRLTCSQLLE [CDKL4]
Result: 2.32

Query: Try the sequence VSLDISPDLPFQIKPSENHYSLLT [PCDHGC5]
Result: 2.22
